Tested on: S. aureus (KCTC 1621)
Assay type: cell-based, Staphylococcus aureus
Conditions: 4.5 mM of KCl
Where no end group is shown, it is not given here.
property-label: MIC (µM)
Enter your answer as a number in µM; do not include the unit.

Completed entries (count: 4):
{"substance": "KKLFKKIWKWL-NH2 [BP11]", "MIC, µM": 4}
{"substance": "KKWFKKWLKWL-NH2 [BP13]", "MIC, µM": 8}
{"substance": "KKLWKKILKWL-NH2 [BP8]", "MIC, µM": 4}
{"substance": "KKWWKKILKYL-NH2 [BP5]", "MIC, µM": 4}

Read the next record carefully.
Return MIC measured with S. aureus (KCTC 1621) given this substance: KKWFKKILKWL-NH2 [BP6]
4

* * *

# MBEC50 per record follows
Tested on: preformed MDRPA (CCARM 2095) biofilms
Assay type: cell-based, multidrug-resistant Pseudomonas aeruginosa
Details: 24 h treatment, 50% eradication
Where no end group is shown, it is not given here.
Enter your answer as a number in µM; do not include the unit.

{"substance": "KKLFKKWWKYL-NH2 [BP9]", "MBEC50, µM": 4}
{"substance": "KKWWKKILKYL-NH2 [BP5]", "MBEC50, µM": 2}
{"substance": "KKWFKKWLKWL-NH2 [BP13]", "MBEC50, µM": 4}
{"substance": "KKWFKKILKWL-NH2 [BP6]", "MBEC50, µM": 4}
{"substance": "KKLFKKWWKWL-NH2 [BP16]", "MBEC50, µM": 16}

Return MBEC50 measured with preformed MDRPA (CCARM 2095) biofilms given this substance: KKLWKKILKWL-NH2 [BP8]
2

* * *

# Minimal Inhibitory Concentration (MIC) per record follows
Tested on: VREF (ATCC 51559)
Type: cell-based, vancomycin-resistant Enterococcus faecium
Details: broth microdilution in MHB, 37 °C, 24 h, 100% inhibition of growth
Record the result as a number with its unit.

Completed entries (count: 4):
{"compound": "CC[C@H](C)[C@H](NC(=O)[C@H](CCCCN)NC(=O)[C@H](CCCCN)NC(=O)[C@H](Cc1ccccc1)NC(=O)[C@H](CC(C)C)NC(=O)[C@H](CCCCN)NC(=O)[C@@H](N)CCCCN)C(=O)N[C@@H](CC(C)C)C(=O)N[C@@H](CCCCN)C(=O)N[C@@H](Cc1c[nH]c2ccccc12)C(=O)N[C@@H](CC(C)C)C(N)=O [BP4]", "Minimal Inhibitory Concentration (MIC)": "16 µM"}
{"compound": "CC[C@H](C)[C@H](NC(=O)[C@H](CCCCN)NC(=O)[C@H](CCCCN)NC(=O)[C@H](Cc1ccccc1)NC(=O)[C@H](CC(C)C)NC(=O)[C@H](CCCCN)NC(=O)[C@@H](N)CCCCN)C(=O)N[C@@H](CC(C)C)C(=O)N[C@@H](CCCCN)C(=O)N[C@@H](Cc1ccc(O)cc1)C(=O)N[C@@H](CC(C)C)C(N)=O [BP100]", "Minimal Inhibitory Concentration (MIC)": "64 µM"}
{"compound": "CC(C)C[C@H](NC(=O)[C@H](Cc1ccc(O)cc1)NC(=O)[C@H](CCCCN)NC(=O)[C@H](CC(C)C)NC(=O)[C@H](Cc1c[nH]c2ccccc12)NC(=O)[C@H](CCCCN)NC(=O)[C@H](CCCCN)NC(=O)[C@H](Cc1ccccc1)NC(=O)[C@H](CC(C)C)NC(=O)[C@H](CCCCN)NC(=O)[C@@H](N)CCCCN)C(N)=O [BP2]", "Minimal Inhibitory Concentration (MIC)": "128 µM"}
{"compound": "CC[C@H](C)[C@H](NC(=O)[C@H](CCCCN)NC(=O)[C@H](CCCCN)NC(=O)[C@H](Cc1ccccc1)NC(=O)[C@H](CC(C)C)NC(=O)[C@H](CCCCN)NC(=O)[C@@H](N)CCCCN)C(=O)N[C@@H](Cc1c[nH]c2ccccc12)C(=O)N[C@@H](CCCCN)C(=O)N[C@@H](Cc1ccc(O)cc1)C(=O)N[C@@H](CC(C)C)C(N)=O [BP3]", "Minimal Inhibitory Concentration (MIC)": "64 µM"}

Field request: Minimal Inhibitory Concentration (MIC) | item: CC[C@H](C)[C@H](NC(=O)[C@H](CCCCN)NC(=O)[C@H](CCCCN)NC(=O)[C@H](Cc1c[nH]c2ccccc12)NC(=O)[C@H](CC(C)C)NC(=O)[C@H](CCCCN)NC(=O)[C@@H](N)CCCCN)C(=O)N[C@@H](CC(C)C)C(=O)N[C@@H](CCCCN)C(=O)N[C@@H](Cc1ccc(O)cc1)C(=O)N[C@@H](CC(C)C)C(N)=O [BP1]
64 µM

The measured values listed here are drawn from paper PMC11596392.
